- procedureText: Thermodynamic solubility measurement in FaSSIF pH 6.5 and SGF pH 1.6
- Type: physicochemical
- studyConditions: SGF, 37 °C, pH 1.6, simulated gastric fluid, thermodynamic from solid
Counter-ions that a name gives are not always drawn.
recordedEndpoint: solubility at 24 h (µg/mL)

{"compound": "CC(C)(C)c1nc(-c2cccc(NS(=O)(=O)c3c(F)cccc3F)c2F)c(-c2ccnc(N)n2)s1 [Dabrafenib, Dabrafenib mesylate]", "solubility at 24 h [µg/mL]": 11.7}
{"compound": "Cc1ccc(Nc2nccc(N(C)c3ccc4c(C)n(C)nc4c3)n2)cc1S(N)(=O)=O [Pazopanib, pazopanib hydrochloride (HCl)]", "solubility at 24 h [µg/mL]": 1080}

P: C#Cc1cccc(Nc2ncnc3cc(OCCOC)c(OCCOC)cc23)c1 [Erlotinib, erlotinib HCl]
Q: CCCS(=O)(=O)Nc1ccc(F)c(C(=O)c2c[nH]c3ncc(-c4ccc(Cl)cc4)cc23)c1F [Vemurafenib, vemurafenib]
R: CS(=O)(=O)CCNCc1ccc(-c2ccc3ncnc(Nc4ccc(OCc5cccc(F)c5)c(Cl)c4)c3c2)o1 [Lapatinib, lapatinib ditosylate monohydrate]
Q. Thanks in advance: please rank these 3 entries by solubility at 24 h, highest to lowest. # list labels per requested ordering
A. P, R, Q

---

- procedureText: Thermodynamic solubility measurement in FaSSIF pH 6.5 and SGF pH 1.6
- Format: physicochemical
- studyConditions: FaSSIF, 37 °C, pH 6.5, fassif, thermodynamic from solid
Counter-ions that a name gives are not always drawn.
recordedEndpoint: solubility at 24 h (µg/mL)

{"molecule": "COc1cc2ncnc(Nc3ccc(F)c(Cl)c3)c2cc1OCCCN1CCOCC1 [Gefitinib, gefitinib]", "recordedResult": 88.7}
{"molecule": "Cc1ccc(Nc2nccc(N(C)c3ccc4c(C)n(C)nc4c3)n2)cc1S(N)(=O)=O [Pazopanib, pazopanib hydrochloride (HCl)]", "recordedResult": 1.2}
{"molecule": "CS(=O)(=O)CCNCc1ccc(-c2ccc3ncnc(Nc4ccc(OCc5cccc(F)c5)c(Cl)c4)c3c2)o1 [Lapatinib, lapatinib ditosylate monohydrate]", "recordedResult": 35}
{"molecule": "CCCS(=O)(=O)Nc1ccc(F)c(C(=O)c2c[nH]c3ncc(-c4ccc(Cl)cc4)cc23)c1F [Vemurafenib, vemurafenib]", "recordedResult": 5.4}
{"molecule": "C#Cc1cccc(Nc2ncnc3cc(OCCOC)c(OCCOC)cc23)c1 [Erlotinib, erlotinib HCl]", "recordedResult": 12.4}

1: C[C@@H](Oc1cc(-c2cnn(C3CCNCC3)c2)cnc1N)c1c(Cl)ccc(F)c1Cl [Crizotinib]
2: CC(C)(C)c1nc(-c2cccc(NS(=O)(=O)c3c(F)cccc3F)c2F)c(-c2ccnc(N)n2)s1 [Dabrafenib, Dabrafenib mesylate]
Q. # min-compare on solubility at 24 h between 1 and 2 API: response body contains the label of the selected item.
A. 2
(2: 3.7 µg/mL, 1: 743 µg/mL)

The measurements presented in this section are drawn from paper PMC7158207.
